# method: photocatalytic hydrogen evolution rate (per 5 mg catalyst); higher = more photocatalytic H2 evolution; extreme values may be limits of the assay;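 note: aromatic molecules in triethylamine/methanol/water with Pt photoreduced in situ, irradiated 3 h under a 1 sun AM 1.5G solar simulator (350–1000 nm), H2 quantified by headspace gas chromatography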;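 note: listed molecule itself used as the photocatalyst at 5 mg per vial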
# run-conditions: catalyst mass (mg): 5; Pt cocatalyst (wt%): 3; sacrificial medium: triethylamine/methanol/water 1:1:1
Kind request: treat 0.002 µmol/h as inclusive, so photocatalytic hydrogen evolution rate at 0.002 µmol/h or higher is true (1), anything lower is false (0).

chem-smiles	label
OB(O)c1ccc(B(O)O)cc1	true (1)
O=Cc1ccc(Br)c(Cl)c1	true (1)
O=C1OC2(c3ccccc31)c1cc(Br)c(O)c(Br)c1Oc1c2cc(Br)c(O)c1Br	true (1)
O=Cc1cc(Br)cc(Br)c1	true (1)
c1cc2ccc3ccc4ccc5ccc6ccc1c1c2c3c4c5c61	false (0)
OCc1cccc2cc3cccc(CO)c3cc12	true (1)
Nc1ccc(Br)cc1Br	false (0)
O=Cc1ccc2ncccc2c1	true (1)
Nc1ccc(N)cc1	false (0)
N#Cc1ccc(Br)cc1F	false (0)
O=C1C=C(Br)C(=O)C=C1Br	false (0)
Nc1ccccc1C(=O)O	false (0)
O=Cc1ccc(-c2cccnc2)cc1	true (1)
c1ccc2c(c1)Nc1ccccc1O2	false (0)
C1=Cc2cccc3cccc1c23	false (0)

###

# method: photocatalytic hydrogen evolution rate (per 5 mg catalyst); higher = more photocatalytic H2 evolution; extreme values may be limits of the assay
# run-conditions: catalyst mass (mg): 5; Pt cocatalyst (wt%): 3; sacrificial medium: triethylamine/methanol/water 1:1:1

chem-smiles	photocatalytic hydrogen evolution rate [µmol/h]
O=C1c2ccccc2-c2ccc3c4ccc5c6c(ccc(c7ccc1c2c73)c64)C(=O)c1ccccc1-5	0.407
N#Cc1cc(C#N)cc(C#N)c1	0.00175
Brc1ccc(Br)nc1	0
N#Cc1cccc(C=O)c1	0.204
Oc1cc(Br)c(O)cc1Br	0
O=Cc1cc(C=O)c(O)c(C=O)c1	10.9
O=Cc1sc(C=O)c(Br)c1Br	0.167
O=Cc1cc(Br)nc(Br)c1	0.107
N#Cc1cc(F)cc(F)c1	0
c1ccc2c(c1)ccc1c3ccccc3ccc21	0
N#Cc1cncc(C=O)c1	0.0889
O=C1C(=O)c2cc(Br)ccc2-c2ccc(Br)cc21	0
N#Cc1ccc(-c2ccc(C#N)nc2)cn1	0.0601
CNc1ccc(C#N)cc1	0
O=C(O)Cc1ccc(Br)cc1Br	0
c1ccc2c(c1)-c1ccccc1C21c2ccccc2-c2ccccc21	0
C=CS(=O)(=O)c1ccccc1	0
O=Cc1cccc(O)c1O	0
CC(C)(O)c1ccc(C(C)(C)O)cc1	0.00118
N#Cc1ccnc(C#N)c1	0
CCCCCCC1(CCCCCC)c2cc(Br)ccc2-c2ccc(Br)cc21	0
Cc1ccc(N)cc1C#N	0
Brc1cnc(Br)nc1	0
Oc1ccc2ccccc2c1-c1c(O)ccc2ccccc12	0
N#Cc1c2ccccc2c(C#N)c2ccccc12	0.0714
Nc1cc(C(=O)O)ccc1C(=O)O	0.109
Cc1c2ccccc2c(C)c2ccccc12	0.68
CCCCCCCCC1(CCCCCCCC)c2cc(B3OC(C)(C)C(C)(C)O3)ccc2-c2ccc(B3OC(C)(C)C(C)(C)O3)cc21	0.0342
COc1ccnc(-c2cc(OC)ccn2)c1	0.169
c1ccc2c(c1)ccc1ccccc12	0.057

###

# method: photocatalytic hydrogen evolution rate (per 5 mg catalyst); higher = more photocatalytic H2 evolution; extreme values may be limits of the assay
# run-conditions: catalyst mass (mg): 5; Pt cocatalyst (wt%): 3; sacrificial medium: triethylamine/methanol/water 1:1:1

chem-smiles	photocatalytic hydrogen evolution rate, µmol/h
O=Cc1ccnc(-c2cc(C=O)ccn2)c1	0
Nc1ccc(-c2nc(-c3ccc(N)cc3)nc(-c3ccc(N)cc3)n2)cc1	0
O=Cc1cc(C=O)cc(C=O)c1	0.0923
c1ccc(C(=C(c2ccccc2)c2ccccc2)c2ccccc2)cc1	0
c1ccc(N(c2ccccc2)c2ccccc2)cc1	0
c1cc(-c2ccncc2)ccn1	0
CC1(C)c2ccccc2Oc2ccccc21	0.0132
O=C(O)c1c(C(=O)O)c(C(=O)O)c(C(=O)O)c(C(=O)O)c1C(=O)O	0
N#Cc1cccc(-c2cccc(C#N)n2)n1	0.0301
O=Cc1ccc(-c2ccncc2)cc1	3.29
Nc1c(F)c(F)c(N)c(F)c1F	0
Brc1ccc(Br)c2nonc12	0
N#Cc1ccc2ccc(C#N)cc2c1	0.0489
CCc1c(CBr)c(CC)c(CBr)c(CC)c1CBr	0
CC1(C)OB(c2cn[nH]c2)OC1(C)C	0
Brc1ccc2ccc3c(Br)ccc4ccc1c2c43	0.16
N#Cc1cccc(C#N)n1	0
N#Cc1cc(Br)ccn1	0
c1ccc(-c2cc(-c3ccccc3)nc(-c3ccccc3)c2)cc1	0
N#CC(C#N)=c1c(F)c(F)c(=C(C#N)C#N)c(F)c1F	0
O=Cc1ccc(-c2cncnc2)cc1	2.58
O=Cc1cccc(C(=O)O)c1	1.06
c1ccc2nsnc2c1	0
c1csc(-c2ccc(-c3cccs3)s2)c1	0
O=Cc1ccc(N(c2ccccc2)c2ccc(C=O)cc2)cc1	1.17
Brc1ccc(Br)c2ccccc12	0
CC(C)(C)c1ccc(C(=O)CC#N)cc1	0.0435
N#Cc1cnc(Br)cn1	0.721
c1ccc2c(c1)Cc1cc3c(cc1-2)Cc1ccccc1-3	0.136
